assayed_system: BKV serotype IV chimeric infectious virus (VP1 of strain ITA-4) (BK virus serotype IV)
protocol: cell-based or functional assay
reported_property: neutralization EC90
Put down the number, then write its unit next to it.

INSERT INTO assay_data (binder, reported_property, obs_value) VALUES
  ('P7G11A (antibody, human IgG1, lambda, V domains shown) VH: QVQLQESGPGLVKPSQTLSLTCTVSGGSISSGGYSWSWIRQPPGKGLEYIGYIYYRGTTYYNPSLKSRVTISVDTSNNQISLKLSSVTAADTAVYYCARALTHLVGVGWFDPWGQGTMVTVSS VL: QSVLTQPPSVSAAPGQKVTISCSGGSSNLGSNYVSWYQQLPGTAPKLLIYDNNKRPSGIPDRFSGSKSGTSATLGITGLQTGDEADYYCGTWDGSLSAWVFGGGTKVTVLG', 'neutralization EC90', '0.53 µg/mL');

Ask | Record request: neutralization EC90 value, item P165E2 (antibody, human IgG1, lambda, V domains shown) VH: QVQLQESGPGLVKPSETLSLTCTVSGGSISRDYWTWVRQPPGEGLEWIGNIYYSGSTNYNPSLKSRVTISVAASKKQFSLKLTSVTAADTAVYYCARVPGCSSTSCIDGWFDPWGQGILVTVSS VL: QSVLTQPPSLSAAPGQRVTISCSGSSSNIGNTYVSWYQQLPGTAPKLLIYDNNKRPSGIPGRFSGSKSGTSATLGITGLQTGDEAAYYCGTWDSSLSAWVFGGGTRLTVLG
Reply | 0.46 µg/mL
